Just for reference, patent US9611275B2 is where these values come from.

Target: UniProtKB O60502
Sequence (O60502 whole entry): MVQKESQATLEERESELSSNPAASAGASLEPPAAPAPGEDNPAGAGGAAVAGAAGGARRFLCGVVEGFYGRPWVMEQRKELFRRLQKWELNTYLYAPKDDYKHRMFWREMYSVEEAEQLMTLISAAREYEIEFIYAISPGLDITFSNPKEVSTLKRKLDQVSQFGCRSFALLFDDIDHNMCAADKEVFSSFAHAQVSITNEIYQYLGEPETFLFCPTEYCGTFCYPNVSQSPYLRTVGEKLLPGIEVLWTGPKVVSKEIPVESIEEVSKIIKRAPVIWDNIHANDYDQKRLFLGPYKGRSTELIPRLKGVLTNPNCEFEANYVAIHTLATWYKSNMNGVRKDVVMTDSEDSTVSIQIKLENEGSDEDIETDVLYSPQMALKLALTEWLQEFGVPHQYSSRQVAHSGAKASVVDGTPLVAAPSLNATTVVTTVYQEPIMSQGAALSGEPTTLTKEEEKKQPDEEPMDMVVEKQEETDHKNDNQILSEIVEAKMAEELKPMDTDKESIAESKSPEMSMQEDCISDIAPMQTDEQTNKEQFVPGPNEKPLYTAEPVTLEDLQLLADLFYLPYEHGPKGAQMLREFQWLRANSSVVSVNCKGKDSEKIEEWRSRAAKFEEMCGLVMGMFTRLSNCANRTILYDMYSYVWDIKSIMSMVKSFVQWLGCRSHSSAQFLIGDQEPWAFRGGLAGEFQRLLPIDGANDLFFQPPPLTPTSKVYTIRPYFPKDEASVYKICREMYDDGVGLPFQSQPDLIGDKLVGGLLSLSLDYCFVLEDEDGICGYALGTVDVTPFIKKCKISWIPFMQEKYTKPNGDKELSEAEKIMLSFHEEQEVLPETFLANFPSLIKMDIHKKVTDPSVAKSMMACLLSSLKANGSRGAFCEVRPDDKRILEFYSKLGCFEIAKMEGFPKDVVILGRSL
Experiment: biochemical
Format: biochemical
Conditions: purified human O-GlcNAcase 0.7 nM, pH 7.0, room temperature, Cheng-Prusoff; read-out: OGA KI
pKi: −log10 of the molar value.

>  <smiles code>
CN(C)C1=N[C@@H]2[C@@H](O)[C@H](O)[C@@H]([C@@H](OCCC3CCCCC3)C(F)(F)F)O[C@@H]2S1

>  <pKi>
8.64

$$$$
>  <smiles code>
COc1ccc(CO[C@H]([C@H]2O[C@@H]3SC(N(C)C)=N[C@@H]3[C@@H](O)[C@@H]2O)C(F)(F)F)cc1C(F)(F)F

>  <pKi>
9.08

$$$$
>  <smiles code>
CN(C)C1=N[C@@H]2[C@@H](O)[C@H](O)[C@@H]([C@@H](OCc3ccc(CCCF)cc3)C(F)(F)F)O[C@@H]2S1

>  <pKi>
9.11

$$$$
>  <smiles code>
CN(C)C1=N[C@@H]2[C@@H](O)[C@H](O)[C@@H]([C@@H](OCCCCCF)C(F)(F)F)O[C@@H]2S1

>  <pKi>
8.36

$$$$
